Property: GI50; scope: individual compounds
tested on: NCI-H522 lung; test: NCI tumour cell line growth inhibition, 48 h

COMPOUND: C#CC[C@@H]1C[C@]2(C)[C@H]3CC[C@@H]4[C@H]5C(C(=C)C)CC[C@]5(C(=O)NCCCCN)CC[C@@]4(C)[C@]3(C)CC[C@H]2C(C)(C)[C@H]1OC(C)=O (some centres not stated)
TARGET_OR_TEST_SYSTEM: NCI-H522 lung
GI50: 1.8 µM

COMPOUND: O=c1ncc(I)cn1C1CC(O)C(CO)O1 (configuration not stated)
TARGET_OR_TEST_SYSTEM: NCI-H522 lung
GI50: 668 µM

COMPOUND: O=C(CN(/C=C/C(=O)C(F)(F)F)c1ccc(Cl)cc1)c1ccc(F)cc1
TARGET_OR_TEST_SYSTEM: NCI-H522 lung
GI50: 3.6 µM

COMPOUND: O=C(O)c1ccc(NCc2nc3cc(Cl)c(Cl)cc3[nH]2)cc1
TARGET_OR_TEST_SYSTEM: NCI-H522 lung
GI50: 66.2 µM

COMPOUND: COc1ccc(C(=O)c2sc3nc4c(cc3c2N)CCCC4)cc1OC
TARGET_OR_TEST_SYSTEM: NCI-H522 lung
GI50: 1.52 µM

COMPOUND: Cc1nc2cc(-c3nn(C(C)C)c4ncnc(N)c34)ccc2o1
TARGET_OR_TEST_SYSTEM: NCI-H522 lung
GI50: 0.00364 µM

COMPOUND: Cc1ccc(C2=Nc3c(N)nc(N)nc3NC(c3cccc(Nc4ccnc5cc(C(F)(F)F)ccc45)c3)C2)cc1 (configuration not stated)
TARGET_OR_TEST_SYSTEM: NCI-H522 lung
GI50: 1.56 µM
